# target-or-test-system: renin (Homo sapiens)
# Construct: This test measures the formation of angiotensin I in human plasma
# Sequence (P00797 67-406): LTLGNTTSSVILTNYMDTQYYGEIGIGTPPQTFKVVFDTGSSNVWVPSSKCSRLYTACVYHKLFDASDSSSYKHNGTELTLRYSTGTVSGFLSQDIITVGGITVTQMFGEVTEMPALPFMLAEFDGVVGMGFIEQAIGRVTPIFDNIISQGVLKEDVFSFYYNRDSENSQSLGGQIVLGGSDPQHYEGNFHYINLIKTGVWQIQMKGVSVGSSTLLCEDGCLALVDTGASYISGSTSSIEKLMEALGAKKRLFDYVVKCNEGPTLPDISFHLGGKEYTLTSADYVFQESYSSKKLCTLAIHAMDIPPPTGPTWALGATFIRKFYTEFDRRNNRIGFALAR
# protocol-notes: in vitro test of Nussberger et al.: formation of angiotensin I in human plasma (radioimmunoassay)
# conditions-used: inhibition of formation of angiotensin I in human plasma
What IC50 was measured for each of the following?
The figure you give is taken to be in nM; do not add the unit.

Would you kindly share the measured IC50 for COCCCN1CCOc2ccc(CO[C@H]3CNCC[C@]3(O)c3ccc(COC[C@@H](C)Cn4cnnn4)cc3)cc21 [Example 371] ?
123

Would you kindly share the measured IC50 for CCO[C@H](C)COCc1ccc([C@@]2(O)CCNC[C@@H]2OCc2ccc3c(c2)N(CCCOC)CCO3)c(CCOC)c1 [Example 378] ?
9.6

Would you kindly share the measured IC50 for CCO[C@H](C)COCc1ccc([C@@]2(O)CCNC[C@@H]2OCc2ccc3c(c2)N(CCCOC)CCO3)c(OCCOC)c1 [Example 375] ?
84.3

Would you kindly share the measured IC50 for COCCCN1CCOc2ccc(CO[C@H]3CNCC[C@]3(O)c3ccc(COCCOC)cc3)cc21 [Example 361] ?
40.4
